This section presents Ki values reported for UniProtKB P51677 in the literature.
Enter the number, and then the unit.

Here is how some compounds turned out for Ki.
Compound	Value kind	Measured
FC(F)(F)c1ccccc1/C=C1\CCN2Cc3ccccc3N=C12	Ki	1.6 µM
COc1ccc(C(CNCCc2ccccc2)N2CCN(C3CCCCC3)CC2)cc1 (stereo not given)	Ki	1.04 µM
O=C(O)c1cccc(C(=O)N2CCC(N3CCC(Oc4ccc(Cl)c(Cl)c4)CC3)CC2)c1	Ki	0.2 µM
Cc1ccc(NC(=O)NCC(c2ccc(-c3ccccc3)cc2)N2CCN(C3CCCCC3)CC2)cc1 (stereo not given)	Ki	0.316 µM
O=C(NS(=O)(=O)c1cccc(Cl)c1)N1CCC(N2CCC(Oc3ccc(Cl)c(Cl)c3)CC2)CC1	Ki	0.00631 µM
N=c1c2ccccc2nc2n1CC/C2=C\c1ccccc1I	Ki	0.076 µM
O=C(NS(=O)(=O)Cc1ccccc1)N1CCC(N2CCC(Oc3ccc(Cl)c(Cl)c3)CC2)CC1	Ki	0.158 µM
COc1ccccc1C(CNC(=O)Nc1cc(Cl)cc(Cl)c1)N1CCN(C2CCCCC2)CC1 (stereo not given)	Ki	0.897 µM
COc1ccc(CCNCC(c2ccc(C(F)(F)F)cc2)N2CCN(C3CCCCC3)CC2)cc1 (stereo not given)	Ki	0.477 µM

Ki in this record for Cc1ccc(CCNCC(c2ccc(N(C)C)cc2)N2CCN(c3ccccc3)CC2)cc1 (stereo not given) : 0.435 µM

* * *

Target protein (sequence): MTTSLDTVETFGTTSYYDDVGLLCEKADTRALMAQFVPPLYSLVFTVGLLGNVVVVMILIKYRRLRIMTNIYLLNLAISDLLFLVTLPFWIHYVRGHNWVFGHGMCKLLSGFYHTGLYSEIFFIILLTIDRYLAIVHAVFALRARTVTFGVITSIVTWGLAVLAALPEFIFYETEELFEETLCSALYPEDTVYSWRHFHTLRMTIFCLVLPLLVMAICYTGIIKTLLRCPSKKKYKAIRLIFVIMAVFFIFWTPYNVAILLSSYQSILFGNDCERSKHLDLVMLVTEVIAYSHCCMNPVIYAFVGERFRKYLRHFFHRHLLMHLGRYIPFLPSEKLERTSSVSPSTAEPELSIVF
This section presents log10 of Ki values reported for the protein given by its sequence in the literature.
Values reflect log10 of reported Ki (nM).

Here is how some molecules turned out for log10 of Ki.
Molecule	log10 of Ki
COc1ccccc1C(CNC(=O)Nc1ccc(C)cc1)N1CCN(c2ccccc2)CC1 (stereo unspecified)	3.55
FC(F)(F)Oc1ccccc1/C=C1\CCN2Cc3ccccc3N=C12	3.51
Cc1oc2nc3n(c(=N)c2c1C)CC/C3=C\c1ccccc1Br	2.43
COc1ccc(C(CNCCc2cc(C)cc(C)c2)N2CCN(C3CCCCC3)CC2)cc1 (stereo unspecified)	1.70
O=C(O)c1ccccc1C(=O)N1CCC(N2CCC(Oc3ccc(Cl)c(Cl)c3)CC2)CC1	2.40

// switching to the query molecule
log10 of Ki in this record for N=c1c2ccccc2nc2n1CC/C2=C\c1ccccc1Br : 1.45

* * *

This section presents Ki values reported for C-C chemokine receptor type 3 (Homo sapiens, UniProt P51677) in the literature.
Kindly answer with a numeric value in nM, unit omitted.

Here is how some compounds turned out for Ki.
Compound	Ki, nM
N=c1c2ccsc2nc2n1CC/C2=C\c1ccccc1Br	28
COc1ccc(CCNCC(c2ccc(C(F)(F)F)cc2)N2CCN(c3ccccc3)CC2)cc1 (stereo not given)	393
CCc1ccccc1/C=C1\CCn2c1nc1ccccc1c2=N	360
O=C(O)CCNc1ccccc1C(=O)N1CCC(N2CCC(Oc3ccc(Cl)c(Cl)c3)CC2)CC1	501
Cc1ccc(NC(=O)NCC(c2ccc(C(F)(F)F)cc2)N2CCN(C)CC2)cc1 (stereo not given)	10700
CN(C)c1ccc(CCNCC(c2ccccc2)N2CCN(c3ccccc3)CC2)cc1 (stereo not given)	1770
O=C(c1c[nH]c(=O)c2ccccc12)N1CCC(N2CCC(Oc3ccc(Cl)c(Cl)c3)CC2)CC1	10
COc1cccc(C(=O)NCCN2CCC(Oc3ccc(Cl)c(Cl)c3)CC2)c1	100
COc1ccc(NC(=O)NCC(c2ccc(C(F)(F)F)cc2)N2CCN(C3CCCCC3)CC2)cc1 (stereo not given)	1710
Brc1ccccc1/C=C1\CCN2Cc3ccccc3N=C12	90

Tested on C-C chemokine receptor type 3 (Homo sapiens, UniProt P51677), the item Clc1cccc(Cl)c1/C=C1\CCN2Cc3ccccc3N=C12 showed Ki equal to 1800

Tested on C-C chemokine receptor type 3 (Homo sapiens, UniProt P51677), the item COc1ccccc1CCNCC(c1ccc(C(C)(C)C)cc1)N1CCN(c2ccccc2)CC1 (stereo not given) showed Ki equal to 488
